test system: CAKI-1 renal; assay: NCI-60 one-dose screen, 48 h; conditions: 10 µM unless noted
Compounds without any hit were thinned out: in the full panel of roughly 83,000, 20% have a hit. The source made the active and inactive calls. Rule for the calls: active = growth percent below 10; inactive = the rest.
Thanks in advance; please answer with one of these: yes (active), no (inactive)

A selection of reference data follows.
1. COc1cc(-c2cc3ncccc3c3nc(N)c4cccnc4c23)cc(OC)c1OC ... no
2. O=C1c2cc3c(cc2-c2c1c1ccc(Cl)cc1c(=O)n2C[C@H](O)[C@@H](O)[C@H](O)CO)OCO3 ... yes
3. COc1cc2nc(Cl)nc(Nc3cccc(C(=O)/C=C/c4ccc(Br)cc4)c3)c2cc1OC ... no
4. C=C(C)[C@@H]1CC[C@]2(c3nnc(-c4ccncc4)o3)CC[C@]3(C)[C@H](CC[C@@H]4[C@@]5(C)CCC(=O)NC(C)(C)[C@@H]5CC[C@]43C)[C@@H]12 ... no
5. O=C1NC(c2ccc(Cl)c(Cl)c2)=C/C1=C\c1ccccc1 ... no

(Q) Entry Cc1ccc(N(CC(=O)Nc2ccc(S(=O)(=O)NC3CCN(C)CC3)cc2)S(=O)(=O)c2ccc(Cl)cc2)cc1 : call = ?
(A) no

(Q) Entry O=c1c(CNc2ccc(S(=O)(=O)Nc3ncccn3)cc2)coc2ccccc12 : call = ?
(A) no

(Q) Entry C[C@H]1[C@H]2C3=CC[C@@H]4[C@@]5(C)C/C(=C/c6ccco6)C(=O)C(C)(C)[C@@H]5CC[C@@]4(C)[C@]3(C)CC[C@@]2(C(=O)N2CCOCC2)CC[C@@H]1C : call = ?
(A) no

(Q) Entry COc1ccc2[nH]cc(-c3nc(-c4c[nH]c5ncccc45)cs3)c2c1 : call = ?
(A) yes

(Q) Entry CC(=O)Nc1cc(F)cc(C(F)(F)F)c1Cl : call = ?
(A) no

(Q) Entry COc1cc2ncnc(Nc3ccc(OCc4cccc(F)c4)c(Cl)c3)c2cc1NC(=O)C1CCCC1 : call = ?
(A) no
